Data provenance is patent US4985417A.

Target: carbonic anhydrase
Assay: carbonic anhydrase inhibition (concentration for 50% inhibition)
Settings: carbonic anhydrase inhibitory properties; read-out: Conc. for 50% Inhibition
Where a name gives a salt, the structure may show the parent alone.
ASSAY ENDPOINT: IC50 (nM)

>>> data_value("CC(=O)N1CCC[C@H]1C(=O)Nc1ccc(S(N)(=O)=O)cc1")
67.5
>>> data_value("NS(=O)(=O)c1ccc(NC(=O)[C@@H]2CCCN2)cc1 [hydrochloride]")
94.9
